Where do these numbers come from? They come from PubChem BioAssay (NCI).

tested on: NCI-H460 lung; test: NCI tumour cell line growth inhibition, 48 h

| compound | TGI |
| --- | --- |
| COC(=O)C(C(=O)C(=O)Nc1ccc(C(F)(F)F)cc1[N+](=O)[O-])c1csc(-n2nc(-c3ccccc3)cc2-c2ccccc2)n1 (stereo not given) | > 100 µM |
| CC[N+](C)(CC)CCC(O)(c1ccccc1)c1ccccc1 | > 100 µM |
| CCOC(=O)C1(Br)C(c2ccccc2)NC(=O)NC1(C)Br (stereo not given) | > 100 µM |
| OCC1OC(n2cnc3cncnc32)C(O)C1O (stereo not given) | 1.49 µM |
| CCOC(=O)C(=[N+]=[N-])C(=O)Nc1nn2nnnc2c2ccccc12 | > 100 µM |
